Entry source: patent US20040043420A1

# target.desc: T1, Gal4 transcriptional activation domain (AD) fused in frame with AR (yeast, UniProt P10275 1-920, limits assumed); also: unit not given here
# T1 sequence (looked up): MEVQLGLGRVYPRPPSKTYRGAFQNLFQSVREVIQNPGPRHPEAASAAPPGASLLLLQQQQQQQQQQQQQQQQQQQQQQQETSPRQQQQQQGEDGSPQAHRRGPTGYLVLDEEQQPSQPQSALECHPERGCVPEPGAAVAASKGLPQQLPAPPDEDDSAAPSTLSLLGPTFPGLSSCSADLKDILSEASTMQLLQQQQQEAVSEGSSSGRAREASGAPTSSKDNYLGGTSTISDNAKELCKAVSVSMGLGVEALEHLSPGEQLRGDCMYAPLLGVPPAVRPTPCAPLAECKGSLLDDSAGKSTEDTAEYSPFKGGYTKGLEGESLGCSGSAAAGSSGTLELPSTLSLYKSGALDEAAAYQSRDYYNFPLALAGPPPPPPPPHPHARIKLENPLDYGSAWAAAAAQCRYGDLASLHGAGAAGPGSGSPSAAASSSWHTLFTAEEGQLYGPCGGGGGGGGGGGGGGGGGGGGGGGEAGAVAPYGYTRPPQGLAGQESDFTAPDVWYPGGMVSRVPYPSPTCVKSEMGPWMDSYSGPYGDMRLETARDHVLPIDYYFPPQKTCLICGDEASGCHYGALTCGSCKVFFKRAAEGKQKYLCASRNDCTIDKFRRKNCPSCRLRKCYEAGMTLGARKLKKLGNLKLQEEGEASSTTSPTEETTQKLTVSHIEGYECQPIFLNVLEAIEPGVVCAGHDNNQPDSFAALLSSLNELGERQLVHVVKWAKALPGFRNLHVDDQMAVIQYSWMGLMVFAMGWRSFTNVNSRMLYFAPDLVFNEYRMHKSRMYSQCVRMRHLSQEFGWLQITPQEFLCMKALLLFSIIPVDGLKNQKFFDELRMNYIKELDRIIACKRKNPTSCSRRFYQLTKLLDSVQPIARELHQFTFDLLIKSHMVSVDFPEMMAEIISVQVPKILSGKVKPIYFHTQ
# experiment.description: cell-based or functional assay
measure.name: β-galactosidase activity (yeast two-hybrid), RU
Give only the figure.

binder	result.number
B8A10 (peptide) MKLLSSIEQACDICRLKKLKCSKEKPKCAKCLKNNWECRYSPKTKRSPLTRAHLTEVESRLERLEQLFLLIFPREDLDMILKMDSLQDIKALLTGLFVQDNVNKDAVTDRLASVETDMPLTLRQHRISATSSSEESSNKGQRQLTVSEFVNWDAVVPWSELVALLDLQPS	0.4
B22F6 (peptide) MKLLSSIEQACDICRLKKLKCSKEKPKCAKCLKNNWECRYSPKTKRSPLTRAHLTEVESRLERLEQLFLLIFPREDLDMILKMDSLQDIKALLTGLFVQDNVNKDAVTDRLASVETDMPLTLRQHRISATSSSEESSNKGQRQLTVSEFLSGLEMEVVLWHYGRLDLQPS	1.2

// moving on: another record for β-galactosidase activity (yeast two-hybrid), RU
**Query** Item under review: M4D1 (peptide) MKLLSSIEQACDICRLKKLKCSKEKPKCAKCLKNNWECRYSPKTKRSPLTRAHLTEVESRLERLEQLFLLIFPREDLDMILKMDSLQDIKALLTGLFVQDNVNKDAVTDRLASVETDMPLTLRQHRISATSSSEESSNKGQRQLTVSEFRFPFHEMVREWESMGLERVRYAEP . Reported β-galactosidase activity (yeast two-hybrid), RU?
**Result** 0.1
